// data source = ChEMBL document CHEMBL1133658

Read-out record for Tubulin alpha chain (Sus scrofa): IC50
Numbers only, in nM.

Examples with their reported IC50 follow.
1. COc1ccc2c(c1)CC=Cc1cc(OC)c(OC)c(OC)c1-2: 1510
2. COc1cccc(-c2cc(O)c3c(Br)ccnc3n2)c1: 1510
3. COc1cc2c(c(OC)c1OC)-c1ccc(SC)c(=O)cc1[C@@H](COC(=O)c1ccccc1F)C2: 3630
4. O=C(Oc1cccc(-c2cc(O)c3cc4c(cc3n2)OCO4)c1)c1ccccc1: 447
5. COc1ccc(-c2cc(O)c3cc(C)cnc3n2)cc1: 7760

Report IC50 for each item below.
1. COc1cc2c(c(OC)c1OC)-c1ccc(SC)c(=O)cc1[C@@H](COC(=O)c1ccc(F)cc1)C2
2. COc1cc2c(c(OC)c1OC)-c1ccc(SC)c(=O)cc1[C@@H](OC(=O)c1ccncc1)CC2
3. COc1cccc(-c2cc(O)c3cc4c(cc3n2)OCO4)c1
4. Oc1cc(-c2cccc3ccccc23)nc2ncccc12

Response given:
4470
562
575
1100

For every listed record, write down its IC50.
1. COc1cc2c(c(OC)c1OC)-c1ccc(SC)c(=O)cc1[C@@H](OC(=O)c1cccnc1)CC2
2. COc1cc2c(c(OC)c1OC)-c1ccc(SC)cc1[C@@H](O)C=C2
3. COc1c(O)cc2c(c1OC)-c1ccc(SC)c(=O)cc1[C@@H](NC(=O)CC(C)=O)CC2
4. Oc1cc(-c2cccc(Cl)c2)nc2cc3c(cc12)OCO3
5. CCCC(=O)O[C@@H]1CCc2cc(OC)c(OC)c(OC)c2-c2ccc(SC)cc21

Response given:
[759, 1820, 1700, 372, 4790]

Here are 5 compounds. What values of IC50 were reported for them?
1. CNc1cccc(-c2cc(O)c3cc4c(cc3n2)OCO4)c1
2. COc1cccc(-c2cc(O)c3cc(C)cnc3n2)c1
3. COc1ccc2c(c1)C=CCc1cc(OC)c(OC)c(OC)c1-2
4. COc1cc2c(c(OC)c1O)-c1ccc(SC)c(=O)cc1[C@@H](NC(C)=O)CC2
5. Cc1ccnc2nc(-c3cccc4ccccc34)cc(O)c12

Response given:
1. 646
2. 794
3. 2190
4. 1510
5. 933

Quick batch: IC50 for everything below.
1. Cc1ccc2c(O)cc(-c3cccc(Cl)c3)nc2n1
2. COc1cc2c(c(OC)c1OC)-c1ccc(SC)c(=O)cc1[C@@H](NC(=O)C13CCC(C)(C(=O)O1)C3(C)C)CC2 (stereo partly specified)
3. Oc1cc(-c2ccc3ccccc3c2)nc2ncccc12
4. Nc1cccc(-c2cc(O)c3cc4c(cc3n2)OCO4)c1
5. COc1cc2c(c(OC)c1OC)-c1ccc(SC)cc1[C@@H](OC(=O)c1cccnc1)CC2
6. COc1cc2c(c(OC)c1OC)-c1ccc(SC)cc1[C@@H](OC(C)=O)CC2
7. COc1cccc(-c2cc(O)c3cccnc3n2)c1
8. Cc1ccnc2nc(-c3ccc4ccccc4c3)cc(O)c12

Response given:
891
2400
14100
724
4790
2820
955
1820

Go through the list and state IC50 for each entry.
1. Cc1ccc2c(O)cc(-c3ccc(C)s3)nc2n1
2. Cc1ccnc2nc(-c3ccc(F)cc3)cc(O)c12
3. COc1ccccc1-c1cc(O)c2cc(C)cnc2n1
4. Cc1ccc(-c2cc(O)c3c(C)ccnc3n2)cc1

Response given:
1: 1700; 2: 18200; 3: 18200; 4: 2880
